Listing: drug sensitivity score of selected compounds
test system: HOSE1C; assay: drug sensitivity score (DSS) from 5-point dose-response viability curve (DSS (area-under-curve based score)); higher = more sensitive (stronger growth inhibition or killing); extreme values may be limits of the assay; conditions: exposure time: 72 h; concentration range: 5 concentrations over 10,000-fold range
Provide a numeric answer; units are not to be included.

Worked cases, drug sensitivity score given:
Smiles Entry: NCC(=O)Nc1ccc(-n2nc(C(F)(F)F)cc2-c2ccc3c(ccc4ccccc43)c2)cc1
System: HOSE1C
Quantity Kind: drug sensitivity score
Reported Measurement: 21.7
//
Smiles Entry: Cn1nccc1Nc1nccc(-c2ccn([C@H](CO)c3ccc(Cl)c(F)c3)c(=O)c2)n1
System: HOSE1C
Quantity Kind: drug sensitivity score
Reported Measurement: 0
//
Smiles Entry: O=C(c1cc(Cc2n[nH]c(=O)c3ccccc23)ccc1F)N1CCN(C(=O)C2CC2)CC1
System: HOSE1C
Quantity Kind: drug sensitivity score
Reported Measurement: 0.8

Data request: # return recorded drug sensitivity score for entry Cn1cc(-c2ccc(F)c(C(F)(F)F)c2)nc1C1CCN(c2ncnc3[nH]ncc23)CC1
Data returned: 1.9

Data request: # return recorded drug sensitivity score for entry CNc1ncc2cc(-c3cc(NC(=O)NCCC(C)(C)C)c(F)cc3C)c(C)nc2n1
Data returned: 4.2

---

system: JHOS2; assay: drug sensitivity score (DSS) from 5-point dose-response viability curve (DSS (area-under-curve based score)); higher = more sensitive (stronger growth inhibition or killing); extreme values may be limits of the assay; settings: exposure time: 72 h; concentration range: 5 concentrations over 10,000-fold range
Quantity Kind: drug sensitivity score
Provide a numeric answer; units are not to be included.

Smiles Entry: CO[C@@H](C)Cn1c(=O)n(C)c2cnc3ccc(-c4cncc(C(C)(C)O)c4)cc3c21
System: JHOS2
Reported Measurement: 7.8

Smiles Entry: CNc1nc(Nc2cn(C(C)(C)C#N)nc2C)ncc1C(F)(F)F
System: JHOS2
Reported Measurement: 0

Smiles Entry: Cn1ncc(Cl)c1-c1cc(C(=O)N[C@H](CN)Cc2cccc(F)c2)sc1Cl
System: JHOS2
Reported Measurement: 0

Smiles Entry: CC1=C(/C=C/C(C)=C/C=C/C(C)=C/C(=O)O)C(C)(C)CCC1
System: JHOS2
Reported Measurement: 0.5

Smiles Entry: C[C@H](Nc1ncnc2nc[nH]c12)c1cc2cccc(Cl)c2c(=O)n1-c1ccccc1
System: JHOS2
Reported Measurement: 0

Data request: # return recorded drug sensitivity score for entry O=C(O)C(=O)O.[NH-][C@@H]1CCCC[C@H]1[NH-].[Pt+2]
Data returned: 7.8

Data request: # return recorded drug sensitivity score for entry CO[C@H]1C[C@@H]2CC[C@@H](C)[C@@](O)(O2)C(=O)C(=O)N2CCCC[C@H]2C(=O)O[C@H]([C@H](C)C[C@@H]2CC[C@@H](OC(=O)C(C)(CO)CO)[C@H](OC)C2)CC(=O)[C@H](C)/C=C(\C)[C@@H](O)[C@@H](OC)C(=O)[C@H](C)C[C@H](C)/C=C/C=C/C=C/1C
Data returned: 2.8

---

test system: HOSE2C; assay: drug sensitivity score (DSS) from 5-point dose-response viability curve (DSS (area-under-curve based score)); higher = more sensitive (stronger growth inhibition or killing); extreme values may be limits of the assay; conditions: exposure time: 72 h; concentration range: 5 concentrations over 10,000-fold range
Quantity Kind: drug sensitivity score
Provide a numeric answer; units are not to be included.

Worked cases, drug sensitivity score given:
Compound: CCNC(=O)C[C@@H]1N=C(c2ccc(Cl)cc2)c2cc(OC)ccc2-n2c(C)nnc21
System: HOSE2C
drug sensitivity score: 10

Compound: CC(C)N(C[C@H]1O[C@@H](n2cnc3c(N)ncnc32)[C@H](O)[C@@H]1O)[C@H]1C[C@@H](CCc2nc3cc(C(C)(C)C)ccc3[nH]2)C1
System: HOSE2C
drug sensitivity score: 0

Compound: Cc1ccc(C(=O)Nc2ccc(CN3CCN(C)CC3)c(C(F)(F)F)c2)cc1C#Cc1cnc2cccnn12
System: HOSE2C
drug sensitivity score: 8.5

Compound: Clc1ccc(C(c2ccccc2Cl)C(Cl)Cl)cc1 (stereo not drawn)
System: HOSE2C
drug sensitivity score: 0

Compound: N#CC(c1ccnc(OCc2ccc(CN3CCOCC3)cc2)n1)c1nc2ccccc2s1 (stereo not drawn)
System: HOSE2C
drug sensitivity score: 0.3

Compound: Cn1nnc2c(C(N)=O)ncn2c1=O [Temozolomide]
System: HOSE2C
drug sensitivity score: 0.5

Data request: State drug sensitivity score (HOSE2C) of COc1nc(N)nc2c1ncn2[C@@H]1O[C@H](CO)[C@@H](O)[C@@H]1O .
Data returned: 0

Data request: State drug sensitivity score (HOSE2C) of COc1cccc2c1c(O)c(C(=O)N(C)c1ccc(C(F)(F)F)cc1)c(=O)n2C .
Data returned: 0

---

test system: OVCAR4; assay: drug sensitivity score (DSS) from 5-point dose-response viability curve (DSS (area-under-curve based score)); higher = more sensitive (stronger growth inhibition or killing); extreme values may be limits of the assay; details: exposure time: 72 h; concentration range: 5 concentrations over 10,000-fold range
Quantity Kind: drug sensitivity score

Worked cases, drug sensitivity score given:
Compound: O=C1Cc2cc(C(=O)NC3C[C@H]4CC[C@@H](C3)N4S(=O)(=O)CC3CCN(CCCC(F)(F)F)CC3)c(Cl)cc2N1 (stereo partly drawn)
Quantity Kind: drug sensitivity score
Reported Measurement: 0

Compound: Nc1cccc2c1CN(C1CCC(=O)NC1=O)C2=O (stereo not drawn) [Lenalidomide]
Quantity Kind: drug sensitivity score
Reported Measurement: 0

Compound: CCNC(=O)CCC/C=C\C[C@@H]1[C@@H](/C=C/[C@@H](O)CCc2ccccc2)[C@H](O)C[C@@H]1O [Bimatoprost]
Quantity Kind: drug sensitivity score
Reported Measurement: 0

Compound: COc1cc2c(Nc3ccc(Cl)c(Cl)c3F)ncnc2cc1OC[C@@H]1C[C@@H]2CN(C)C[C@@H]2C1 [Tesevatinib]
Quantity Kind: drug sensitivity score
Reported Measurement: 1.6

Compound: Nc1cccc2c1C(=O)N(C1CCC(=O)NC1=O)C2=O (stereo not drawn) [Pomalidomide]
Quantity Kind: drug sensitivity score
Reported Measurement: 0

Data request: # return recorded drug sensitivity score for entry CN1CCN(C2CCN(C(=O)Nc3cc(Oc4ccc(NC(=O)C5(C(=O)Nc6ccc(F)cc6)CC5)c(F)c4)ccn3)CC2)CC1 [Golvatinib]
Data returned: 0

Data request: # return recorded drug sensitivity score for entry CC(C)C[C@H](NC(=O)CNC(=O)c1cc(Cl)ccc1Cl)B(O)O [Ixazomib]
Data returned: 6.5

Data request: # return recorded drug sensitivity score for entry C[C@H]1CN(C2COC2)CCN1c1ccc(Nc2cc(-c3ccnc(N4CCn5c(cc6c5CC(C)(C)C6)C4=O)c3CO)cn(C)c2=O)nc1 [GDC-0853]
Data returned: 0

---

tested on: COV318; test: drug sensitivity score (DSS) from 5-point dose-response viability curve (DSS (area-under-curve based score)); higher = more sensitive (stronger growth inhibition or killing); extreme values may be limits of the assay; conditions: exposure time: 72 h; concentration range: 5 concentrations over 10,000-fold range
Quantity Kind: drug sensitivity score

Compound: Nc1ncnc2c1nc(N)n2[C@@H]1O[C@H](CO)[C@@H](O)[C@H]1O
drug sensitivity score: 15.1
--
Compound: CCC/C=C/C=C/C(=O)O[C@H]1/C(=C/C(=O)OC)C[C@H]2C[C@H]([C@@H](C)O)OC(=O)C[C@H](O)C[C@@H]3C[C@H](OC(C)=O)C(C)(C)[C@](O)(C[C@@H]4C/C(=C/C(=O)OC)C[C@H](/C=C/C(C)(C)[C@]1(O)O2)O4)O3
drug sensitivity score: 1.4
--
Compound: CCS(=O)(=O)c1cccc(-c2cc(C(=O)NC3CCN(C)CC3)c(C)c3[nH]c4ncc(C)cc4c23)c1
drug sensitivity score: 1.4
--
Compound: CC(C)(C)c1cc(NC(=O)Nc2ccc(-c3cn4c(n3)sc3cc(OCCN5CCOCC5)ccc34)cc2)no1
drug sensitivity score: 0

Data request: # return recorded drug sensitivity score for entry CC(C)[C@H](C(=O)Nc1ccc(C(=O)NO)cc1)c1ccccc1
Data returned: 7.5

Data request: # return recorded drug sensitivity score for entry CC(C)(C)NC(=O)[C@H]1CC[C@H]2[C@@H]3CC[C@H]4NC(=O)C=C[C@]4(C)[C@H]3CC[C@]12C [Finasteride]
Data returned: 0

Data request: # return recorded drug sensitivity score for entry Cc1ccc(C(=O)N(CCCN)[C@@H](c2oc3cc(Cl)ccc3c(=O)c2Cc2ccccc2)C(C)C)cc1
Data returned: 1

Data request: # return recorded drug sensitivity score for entry CC/C(=C(\c1ccc(O)cc1)c1ccc(OCCN(C)C)cc1)c1ccccc1 [4-hydroxytamoxifen]
Data returned: 5.5

Data request: # return recorded drug sensitivity score for entry Cc1cnc(-c2ccccc2C(C)C)nc1NCc1ccc(-n2ccnn2)cc1
Data returned: 0.1

Data request: # return recorded drug sensitivity score for entry CC[C@]12C=CCN3CC[C@@]4(c5cc([C@@]6(C(=O)OC)C[C@@H]7C[C@@H](C(C)(F)F)CN(Cc8c6[nH]c6ccccc86)C7)c(OC)cc5N(C)[C@H]4[C@@](O)(C(=O)OC)[C@@H]1OC(C)=O)[C@@H]32
Data returned: 0.7

Data request: # return recorded drug sensitivity score for entry Cc1cc(C(C)Nc2ccccc2)c2nc(N3CCOCC3)cc(=O)n2c1 (centres undefined)
Data returned: 0

Data request: # return recorded drug sensitivity score for entry NC(=O)N1CCC(CC(=O)N2CCC([C@H]3c4ncc(Br)cc4CCc4cc(Cl)cc(Br)c43)CC2)CC1
Data returned: 9.2

Data request: # return recorded drug sensitivity score for entry CN1CCN(c2cc(C(=O)Nc3ccc4c(c3)-c3c(c(C(N)=O)nn3-c3ccc(F)cc3)CC4)c(Cl)cn2)CC1
Data returned: 0.7

Data request: # return recorded drug sensitivity score for entry COc1cc2/c(=N/c3ccc(Br)cc3F)nc[nH]c2cc1OCC1CCN(C)CC1
Data returned: 0.6
